B1: TPR t1 (parent)
chain: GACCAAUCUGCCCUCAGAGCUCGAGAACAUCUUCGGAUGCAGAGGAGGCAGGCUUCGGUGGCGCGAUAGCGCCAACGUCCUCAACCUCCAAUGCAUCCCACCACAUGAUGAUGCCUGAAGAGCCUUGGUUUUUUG

variants of: B1; experiment: polymerase ribozyme fitness, log enrichment relative to wild type (log ratio); higher = more active; in vitro selection for triplet polymerase activity
Measured property: polymerase ribozyme fitness (log ratio)
Kindly provide the number alone.

Sample records with polymerase ribozyme fitness (log ratio):
C86G U112A G117U G120A U126A    -5.82
U87G U106G    -1.41
C49A U55G A74C U81G A90G G117U    -2.62
A41U C49U G69A    -6.56

So for C64G U78C C115A , the logged polymerase ribozyme fitness (log ratio) turned out to be -5.99

So for C62U A121G , the logged polymerase ribozyme fitness (log ratio) turned out to be 2.41

So for U14G U78A G117A G120A , the logged polymerase ribozyme fitness (log ratio) turned out to be -2.29

So for A5C A18G G63C C88A C101A G120U , the logged polymerase ribozyme fitness (log ratio) turned out to be -4.57

So for C123A G135A , the logged polymerase ribozyme fitness (log ratio) turned out to be 0.422

So for G36A G69A , the logged polymerase ribozyme fitness (log ratio) turned out to be -3.69

So for G19U A105U U106A G113C , the logged polymerase ribozyme fitness (log ratio) turned out to be -0.75
